# Assay target: cloned recombinant human HDAC-1 (Homo sapiens, UniProt Q13547)
# Sequence (Q13547 whole entry): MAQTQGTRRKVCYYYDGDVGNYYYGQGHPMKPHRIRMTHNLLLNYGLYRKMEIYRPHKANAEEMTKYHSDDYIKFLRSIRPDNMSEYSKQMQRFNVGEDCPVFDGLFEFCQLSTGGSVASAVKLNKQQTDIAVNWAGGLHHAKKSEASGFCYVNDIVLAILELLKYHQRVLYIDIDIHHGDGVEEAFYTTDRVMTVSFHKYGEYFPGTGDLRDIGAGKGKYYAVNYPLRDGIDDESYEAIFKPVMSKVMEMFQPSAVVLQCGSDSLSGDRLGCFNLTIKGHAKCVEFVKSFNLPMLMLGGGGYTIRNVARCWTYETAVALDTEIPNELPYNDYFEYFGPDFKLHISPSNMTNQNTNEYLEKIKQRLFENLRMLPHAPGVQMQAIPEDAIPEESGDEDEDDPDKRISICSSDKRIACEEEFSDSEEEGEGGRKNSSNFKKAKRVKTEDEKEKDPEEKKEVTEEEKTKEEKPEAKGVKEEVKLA
# Assay protocol: Human HDAC-1 Assay 1: [3H]-acetylated histone deacetylase assay
# Experimental parameters: Assay 1, unbracketed data; [3H]-acetylated histone substrate, 10 min at 37° C.
Assay metric: IC50 (µM)
One number for each entry, in µM.

These recorded examples may help you get a feel for the data.
Nc1ccccc1NC(=O)c1ccc(CCCc2ccccc2)cc1	2
Cc1ccc(S(=O)(=O)NC/C=C/c2ccc(C(=O)Nc3ccccc3N)cc2)cc1	12
COc1cc(NC(=O)/C=C/c2ccc(C(=O)Nc3ccccc3N)cc2)cc(OC)c1OC	5
Nc1ccccc1NC(=O)c1ccc(/C=C/CN2CCN(Cc3ccccc3)CC2)cc1	4

Provide the reported IC50 of each entry below, same order.
1. CC(C)(C)OC(=O)N(C/C=C/c1ccc(C(=O)Nc2ccccc2N)cc1)Cc1cccnc1
2. Nc1ccccc1NC(=O)c1ccc(/C=C/C(=O)N[C@H]2c3ccccc3C[C@H]2O)cc1
3. COc1ccc(NC/C=C/c2ccc(C(=O)Nc3ccccc3N)cc2)cc1OC1CCCC1
4. N#CCCN(Cc1cccnc1)C(=O)/C=C/c1ccc(C(=O)Nc2ccccc2N)cc1
5. COc1cc(NC/C=C/c2ccc(C(=O)Nc3ccccc3N)cc2)cc(OC)c1OC

Result:
[3, 13, 2, 7, 4]

* * *

# Assay target: cloned recombinant human HDAC-1 (Homo sapiens, UniProt Q13547)
# Assay protocol: Human HDAC-1 Assay 1: [3H]-acetylated histone deacetylase assay
# Experimental parameters: Assay 1, unbracketed data; [3H]-acetylated histone substrate, 10 min at 37° C.
Please go through the items and note down their pIC50.
One number for each entry, as −log10 of the molar value.

These recorded examples may help you get a feel for the data.
COc1cc(OC)c(/C=C/C(=O)c2ccc(C(=O)Nc3ccccc3N)cc2)c(OC)c1	5.40
Nc1ccccc1NC(=O)c1ccc(/C=C/C(=O)OCc2cccnc2)cc1	5.00
Nc1ccccc1NC(=O)c1ccc(/C=C/C(=O)c2ccc(N3CCOCC3)cc2)cc1	5.00
COc1ccc(C2CCN(C(=O)/C=C/c3ccc(C(=O)Nc4ccccc4N)cc3)CC2)cc1OC	4.89
CC(=O)c1cc2c(cc1NC/C=C/c1ccc(C(=O)Nc3ccccc3N)cc1)OCO2	5.52

Provide the reported pIC50 of each entry below, same order.
1. Nc1ccccc1NC(=O)c1ccc(/C=C/C(=O)N2CCCC2c2cccnc2)cc1 (racemic)
2. Nc1ccccc1NC(=O)c1ccc(/C=C/C(=O)c2ccccc2[N+](=O)[O-])cc1
3. COc1ccccc1C(=O)/C=C/c1ccc(C(=O)Nc2ccccc2N)cc1
4. COc1cccc(C(=O)/C=C/c2ccc(C(=O)Nc3ccccc3N)cc2)c1
5. Nc1ccccc1NC(=O)c1ccc(C(=O)/C=C/c2cc(F)ccc2F)cc1
6. Nc1ccccc1NC(=O)c1ccc(/C=C/CNCc2cccnc2)cc1
7. Nc1ccccc1NC(=O)c1ccc(/C=C/C(=O)NCCc2cccnc2)cc1
8. Nc1ccccc1NC(=O)c1ccc(/C=C/CNc2nccc(-c3cccnc3)n2)cc1

Result:
1: 4.92; 2: 5.10; 3: 5.52; 4: 5.40; 5: 5.52; 6: 5.40; 7: 5.30; 8: 5.70

Provide the reported pIC50 of each entry below, same order.
1. COc1ccc(NC/C=C/c2ccc(C(=O)Nc3ccccc3N)cc2)cc1OC
2. Nc1ccccc1NC(=O)c1ccc(/C=C/C(=O)NCc2cccnc2)cc1
3. Nc1ccccc1NC(=O)c1ccc(/C=C/CNc2nc3ccccc3s2)cc1

Result:
[6.00, 5.52, 6.10]

Provide the reported pIC50 of each entry below, same order.
1. Nc1ccccc1NC(=O)c1ccc(C(=O)/C=C/c2c(Cl)cccc2Cl)cc1
2. Nc1ccccc1NC(=O)c1ccc(CCC(=O)c2ccccc2)cc1
3. CSc1nc(NC/C=C/c2ccc(C(=O)Nc3ccccc3N)cc2)n[nH]1

Result:
1. 5.52
2. 5.70
3. 5.70

Source: patent US7282608B2
